Target entity: alkaline phosphatase, placental type (human)
Protocol notes: inhibitors of placental alkaline phosphatase – biochemical, human PLAP isozyme, set 2, selectivity assay for mouse IAP inhibitor project, SAR follow-up (AID 588641)
Experimental setup: purified human placental alkaline phosphatase, enzyme activity
The source made the active and inactive calls. How the calls were made is not given here.
Classes used: YES for active, NO for inactive

>  <Record smiles>
O=C(CCNS(=O)(=O)c1ccc2[nH]c(=O)oc2c1)NCc1ccc(C(F)(F)F)cc1

>  <Qualitative label>
NO

$$$$
>  <Record smiles>
COc1ccc(CCNC(=O)CCCNS(=O)(=O)c2ccc3[nH]c(=O)oc3c2)cc1OC

>  <Qualitative label>
NO

$$$$
>  <Record smiles>
CC(C)(C)c1ccc(/C=N/NC(=O)c2cc(O)c(O)c(O)c2)cc1

>  <Qualitative label>
YES

$$$$
>  <Record smiles>
O=C(CCS(=O)(=O)Nc1ccc2[nH]c(=O)oc2c1)NCc1ccccc1Cl

>  <Qualitative label>
NO

$$$$
>  <Record smiles>
O=C(CCCNS(=O)(=O)c1ccc2[nH]c(=O)oc2c1)NCc1ccc2c(c1)OCO2

>  <Qualitative label>
NO

$$$$
>  <Record smiles>
CCc1ccc(NC(=O)CCNS(=O)(=O)c2ccc3c(c2)oc(=O)n3C)cc1

>  <Qualitative label>
NO

$$$$
>  <Record smiles>
CCOc1cc(C(=O)N/N=C/c2c(F)cccc2Cl)cc(OCC)c1OCC

>  <Qualitative label>
NO

$$$$
>  <Record smiles>
COc1ccc(C(=O)N/N=C/c2c(F)cccc2Cl)cc1OC

>  <Qualitative label>
NO

$$$$
>  <Record smiles>
COc1ccc(CNS(=O)(=O)c2ccc3[nH]c(=O)oc3c2)cc1

>  <Qualitative label>
NO

$$$$
>  <Record smiles>
COc1ccccc1CNC(=O)CCNS(=O)(=O)c1ccc2[nH]c(=O)oc2c1

>  <Qualitative label>
NO

$$$$

The reported measurements were obtained from PubChem BioAssay AID588641.
